test system: Hepatitis C virus; assay: Antiviral activity against HCV in human hepatoma cells assessed as inhibition of RNA replication by replicon assay; type: functional, Hepacivirus hominis
# label = Yes if EC90 < 300 nM else No

CC(C)(C)[C@H](NC(=O)NC1(Cc2cccc3ccccc23)CCCCC1)C(=O)N1C[C@H]2[C@@H]([C@H]1C(=O)NC(CC1CC1)C(=O)C(N)=O)C2(C)C (stereo partly specified)    No
CC(C)(C)[C@H](NC(=O)NC1(Cc2nccs2)CCCCC1)C(=O)N1C[C@H]2[C@@H]([C@H]1C(=O)NC(CC1CC1)C(=O)C(N)=O)C2(C)C (stereo partly specified)    Yes
CC(C)(C)[C@H](NC(=O)NC1(Cc2ccccn2)CCCCC1)C(=O)N1C[C@H]2[C@@H]([C@H]1C(=O)NC(CC1CC1)C(=O)C(N)=O)C2(C)C (stereo partly specified)    Yes
CC(C)(C)[C@H](NC(=O)NC1(Cc2ccco2)CCCCC1)C(=O)N1C[C@H]2[C@@H]([C@H]1C(=O)NC(CC1CC1)C(=O)C(N)=O)C2(C)C (stereo partly specified)    Yes

In plain terms, does CC(C)(C)[C@H](NC(=O)NC1(CS(=O)(=O)C(C)(C)C)CCCCC1)C(=O)N1C[C@H]2[C@@H]([C@H]1C(=O)NC(CC1CCC1)C(=O)C(N)=O)C2(C)C (stereo partly specified) come in under 300 nM for EC90?
Yes

---

This section presents compounds with their documented Ratio values.
experiment: Selectivity for HCV NS3 protease over human neutrophil elastase
Enter a number only.

CC(C)(C)NC(=O)N[C@H](C(=O)N1C[C@H]2[C@@H]([C@H]1C(=O)NC(CC1CCC1)C(=O)C(N)=O)C2(C)C)C(C)(C)C (stereo not given in full)    2200
CC(C)(C)[C@H](NC(=O)NC1(C(=O)c2ccccc2)CCCCC1)C(=O)N1C[C@H]2[C@@H]([C@H]1C(=O)NC(CC1CC1)C(=O)C(N)=O)C2(C)C (stereo not given in full)    230
CC(C)(C)[C@H](NC(=O)NC1(CS(=O)(=O)c2cccc(O)c2)CCCCC1)C(=O)N1C[C@H]2[C@@H]([C@H]1C(=O)NC(CC1CC1)C(=O)C(N)=O)C2(C)C (stereo not given in full)    200
CC(C)(C)[C@H](NC(=O)NC1(CS(=O)(=O)Cc2ccccc2)CCCCC1)C(=O)N1C[C@H]2[C@@H]([C@H]1C(=O)NC(CC1CC1)C(=O)C(N)=O)C2(C)C (stereo not given in full)    90

Value of measured Ratio for the entry CC(C)(C)[C@H](NC(=O)NC1(Cc2ccc(O)cc2)CCCCC1)C(=O)N1C[C@H]2[C@@H]([C@H]1C(=O)NC(CC1CC1)C(=O)C(N)=O)C2(C)C (stereo not given in full) : 260

---

Below: a set of entries, each annotated with reported EC90.
test system: Hepatitis C virus; assay: Antiviral activity against HCV in human hepatoma cells assessed as inhibition of RNA replication by replicon assay; type: functional, Hepacivirus hominis
Output spec: scalar in nM, unitless text.

CC(C)(C)NC(=O)N[C@H](C(=O)N1C[C@H]2[C@@H]([C@H]1C(=O)NC(CC1CCC1)C(=O)C(N)=O)C2(C)C)C(C)(C)C (stereo partly specified)    350
CC(C)(C)[C@H](NC(=O)NC1(c2ccccc2)CCCCC1)C(=O)N1C[C@H]2[C@@H]([C@H]1C(=O)NC(CC1CC1)C(=O)C(N)=O)C2(C)C (stereo partly specified)    400
CC(C)(C)[C@H](NC(=O)NC1(Cc2ccccc2)CCCCC1)C(=O)N1C[C@H]2[C@@H]([C@H]1C(=O)NC(CC1CC1)C(=O)C(N)=O)C2(C)C (stereo partly specified)    85
CC(C)(C)[C@H](NC(=O)NC1(CS(C)(=O)=O)CCCCC1)C(=O)N1C[C@H]2[C@@H]([C@H]1C(=O)NC(CC1CCC1)C(=O)C(N)=O)C2(C)C (stereo partly specified)    500
CC(C)(C)[C@H](NC(=O)NC1(Cc2ccccc2O)CCCCC1)C(=O)N1C[C@H]2[C@@H]([C@H]1C(=O)NC(CC1CC1)C(=O)C(N)=O)C2(C)C (stereo partly specified)    150
CC1(NC(=O)N[C@H](C(=O)N2C[C@H]3[C@@H]([C@H]2C(=O)NC(CC2CCC2)C(=O)C(N)=O)C3(C)C)C(C)(C)C)CCCCC1 (stereo partly specified)    200
CC(C)(C)[C@H](NC(=O)NC1(CS(=O)(=O)c2ccccc2)CCCCC1)C(=O)N1C[C@H]2[C@@H]([C@H]1C(=O)NC(CC1CC1)C(=O)C(N)=O)C2(C)C (stereo partly specified)    100
CC1(NC(=O)N[C@H](C(=O)N2C[C@H]3[C@@H]([C@H]2C(=O)NC(CC2CC2)C(=O)C(N)=O)C3(C)C)C(C)(C)C)CCCCCC1 (stereo partly specified)    250

Looking up CC(C)(C)[C@H](NC(=O)NC1(Cc2ccsc2)CCCCC1)C(=O)N1C[C@H]2[C@@H]([C@H]1C(=O)NC(CC1CC1)C(=O)C(N)=O)C2(C)C (stereo partly specified) , I see its EC90 listed as 100

// recorded EC90 for CC(C)(C)[C@H](NC(=O)NC1(Cc2ccccc2)CCCC1)C(=O)N1C[C@H]2[C@@H]([C@H]1C(=O)NC(CC1CC1)C(=O)C(N)=O)C2(C)C (stereo partly specified) : 300

Value of EC90 reported for the molecule Cc1cc(S(=O)(=O)CC2(NC(=O)N[C@H](C(=O)N3C[C@H]4[C@@H]([C@H]3C(=O)NC(CC3CC3)C(=O)C(N)=O)C4(C)C)C(C)(C)C)CCCCC2)co1 (stereo partly specified) is 400

The reported numbers originate from ChEMBL document CHEMBL1156160.
